Source listed as ChEMBL document CHEMBL1201862.

- Tested on: DU-145
- TEST_DETAILS: NCI tumour cell line growth inhibition, 48 h
Active and inactive are the calls of the source. No stated cut-off is given here; in the data, active = GI50 up to about 1.1 µM and inactive = higher.
PROPERTY_LABEL: GI50

Example results:
COMPOUND | OBSERVED
COc1cc2c(cc1OC)C1C=NC(C2)c2cc(OC)c(OC)cc21 (centres undefined) | > 100 µM (inactive)
O=C1CSC(c2ccc(Cl)cc2)N1c1ccc(-n2c(-c3ccccc3)nc3ccccc3c2=O)cc1 (centres undefined) | > 10 µM (inactive)
CC(C)C(C/C=C1\CC(CO)(COC(=O)C2CCCCC2)OC1=O)C(C)C (centres undefined) | 12.3 µM (inactive)
c1ccc(CSSSCc2ccccc2)cc1 [DIBENZYL TRISULFIDE] | 1.12 µM (active)
C[C@]12CC[C@H]3[C@@H](CC[C@]4(O)C[C@@H](O)CC[C@]34C=O)[C@@]1(O)CC[C@@H]2C1=CC(=O)OC1 | 0.284 µM (active)

Input: Report GI50 for "Cn1c2ccccc2c(=NNc2ccc(C(=O)O)cc2)c2ccccc21" please.
Output: 19.5 µM (inactive)

Input: Name the recorded GI50 for Cc1cn(CCCCOC(=O)NC(CCCNC(N)=O)C(=O)O)c(=O)[nH]c1=O (centres undefined) .
Output: > 100 µM (inactive)

Input: Which GI50 is listed for "COC(=O)/C=C/c1ccc2nncnc2c1.COC(=O)/C=C\c1ccc2nncnc2c1" ?
Output: 28.7 µM (inactive)

Input: What GI50 value was documented for this compound, Cc1cn(C2CC(O)C(CO[Si](C)(C)C(C)(C)C)OC2OC(C)C)c(=O)[nH]c1=O (centres undefined) ?
Output: > 100 µM (inactive)
